Reported IC50 by item:
# assay_system: human CGT (Homo sapiens, UniProt Q16880)
# Sequence (Q16880 21-541): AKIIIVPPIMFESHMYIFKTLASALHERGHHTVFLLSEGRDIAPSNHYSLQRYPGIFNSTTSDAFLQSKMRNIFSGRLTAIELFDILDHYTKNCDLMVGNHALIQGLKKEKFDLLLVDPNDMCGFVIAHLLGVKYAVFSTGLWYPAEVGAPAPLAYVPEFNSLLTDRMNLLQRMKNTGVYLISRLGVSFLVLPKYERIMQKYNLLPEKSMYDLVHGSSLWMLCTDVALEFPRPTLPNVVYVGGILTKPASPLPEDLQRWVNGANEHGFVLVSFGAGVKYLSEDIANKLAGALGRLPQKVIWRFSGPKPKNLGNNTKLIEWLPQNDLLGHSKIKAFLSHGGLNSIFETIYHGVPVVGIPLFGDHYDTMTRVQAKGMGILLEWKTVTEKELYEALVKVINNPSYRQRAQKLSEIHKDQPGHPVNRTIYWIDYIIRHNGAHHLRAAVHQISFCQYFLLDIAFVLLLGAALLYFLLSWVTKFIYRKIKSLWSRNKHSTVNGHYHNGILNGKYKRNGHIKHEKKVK
# method: Assay 1: CGT Enzymatic Assay (RapidFire/MS/MS, 0.01% Tween 80)
# Type: biochemical
# stated_conditions: Table 1, Compounds of Formula (I) and Formula (II); CGT enzymatic assay; read-out: IC50

- molecule: "O=C1N(c2ccc(Br)cc2)C(=O)C(O)(c2ccc(F)cc2)N1c1ccc(Br)cc1 (stereo not shown)"
  observed_value: "10 to 50 µM"

Task item: Could you share which IC50 value was measured for CC[C@@]1(C)N(c2ccc(Cl)cc2)C(=O)N(c2ccc(Cl)cc2)C1(O)c1cccc(C#N)c1 (single isomer, unassigned) ?
Reply: 10 to 50 µM

Task item: Could you share which IC50 value was measured for C[C@H]1N(c2ccc(Cl)cc2)C(=O)N(c2ccc(Cl)cc2)C1(O)c1cccc(C(C)(C)O)c1 (stereo partly shown) ?
Reply: 1 to 10 µM

Task item: Could you share which IC50 value was measured for CN(C)C[C@H]1N(c2ccc(Cl)cc2)C(=O)N(c2ccc(Cl)cc2)C1(O)c1cccc(OC(F)(F)F)c1 (single isomer, unassigned) ?
Reply: < 1 µM

Task item: Could you share which IC50 value was measured for CCC[C@H]1N(c2ccc(Br)cc2)C(=O)N(c2ccc(Br)cc2)C1(O)c1cccc(C(F)(F)F)c1 (stereo partly shown) ?
Reply: < 1 µM

Task item: Could you share which IC50 value was measured for Cc1cccc([C@@]2(C)C(O)N(c3ccc(Cl)cc3)C(=O)N2c2ccc(Cl)cc2)c1 (single isomer, unassigned) ?
Reply: 10 to 50 µM

Task item: Could you share which IC50 value was measured for `Cc1cccc(-c2cn(-c3ccc(Cl)cc3)c(=O)n2-c2ccc(Cl)cc2)c1` ?
Reply: > 50 µM

From: patent US20190134005A1
